# Organism: Rattus norvegicus
# ASSAY_INFO: Relative binding affinity for Dopamine D2 and Alpha-1 adrenergic receptors
EXPERIMENTAL_READOUT: Ratio
Give bare numbers.

COc1ccccc1N1CCN(CCn2c(=O)[nH]c3cc(-c4ccc(Cl)cc4)[nH]c3c2=O)CC1 :: 0.47

Quick batch: Ratio for everything below.
1. O=c1[nH]c2cc(-c3ccccc3Cl)[nH]c2c(=O)n1CCN1CCN(c2ccccc2Cl)CC1
2. O=c1[nH]c2cc[nH]c2c(=O)n1CCN1CCN(c2ccccc2Cl)CC1
3. COc1ccccc1N1CCN(CCn2c(=O)[nH]c3cc(-c4ccc(C)cc4)[nH]c3c2=O)CC1

A:
1. 60
2. 343
3. 9.7

// sample COc1ccc(-c2cc3[nH]c(=O)n(CCN4CCN(c5ccccc5Cl)CC4)c(=O)c3[nH]2)cc1 , its Ratio was 0.65

====

Field: Ki. Provide a value for each of the compounds that follow.
# SYSTEM_TESTED: Adrenergic receptor alpha-1 (Rattus norvegicus, UniProt P15823+P23944+P43140)
# ASSAY_INFO: Inhibition of [3H]prazosin binding to Alpha-1 adrenergic receptor from rat cortex
Numbers only, in nM.

Quick one: give me Ki for each item below, same order please.
1. O=c1[nH]c2cc[nH]c2c(=O)n1CCCN1CCN(c2ccccc2Cl)CC1
2. Cc1ccc(-c2cc3[nH]c(=O)n(CCCN4CCN(c5ccccc5Cl)CC4)c(=O)c3[nH]2)cc1
3. O=c1[nH]c2cc(-c3ccccc3Cl)[nH]c2c(=O)n1CCN1CCN(c2ccccc2Cl)CC1
4. COc1ccccc1N1CCN(CCn2c(=O)[nH]c3cc(-c4cccc(Cl)c4)[nH]c3c2=O)CC1
5. O=c1[nH]c2c([nH]c3ccccc32)c(=O)n1CCN1CCN(c2ccccc2Cl)CC1
6. COc1ccccc1N1CCN(CCn2c(=O)[nH]c3cc(-c4ccc(Cl)cc4)[nH]c3c2=O)CC1
7. Cc1ccc(-c2cc3[nH]c(=O)n(CCN4CCN(c5ccccc5Cl)CC4)c(=O)c3[nH]2)cc1

A:
1. 59.78
2. 110.1
3. 0.46
4. 19.32
5. 0.53
6. 7.68
7. 17.26

I'm hoping you can list Ki for every compound here, please.
1. COc1ccccc1N1CCN(CCCn2c(=O)[nH]c3cc(-c4ccccc4)[nH]c3c2=O)CC1
2. O=c1[nH]c2cc(-c3ccccc3)[nH]c2c(=O)n1CCN1CCN(c2ccccc2Cl)CC1
3. COc1ccccc1N1CCN(CCn2c(=O)[nH]c3cc(-c4ccc(C)cc4)[nH]c3c2=O)CC1

A:
1.23
1.08
2.05

====

For each record, write down the corresponding Ki.
# SYSTEM_TESTED: D(1A) dopamine receptor (Rattus norvegicus)
# Sequence (P18901 whole entry): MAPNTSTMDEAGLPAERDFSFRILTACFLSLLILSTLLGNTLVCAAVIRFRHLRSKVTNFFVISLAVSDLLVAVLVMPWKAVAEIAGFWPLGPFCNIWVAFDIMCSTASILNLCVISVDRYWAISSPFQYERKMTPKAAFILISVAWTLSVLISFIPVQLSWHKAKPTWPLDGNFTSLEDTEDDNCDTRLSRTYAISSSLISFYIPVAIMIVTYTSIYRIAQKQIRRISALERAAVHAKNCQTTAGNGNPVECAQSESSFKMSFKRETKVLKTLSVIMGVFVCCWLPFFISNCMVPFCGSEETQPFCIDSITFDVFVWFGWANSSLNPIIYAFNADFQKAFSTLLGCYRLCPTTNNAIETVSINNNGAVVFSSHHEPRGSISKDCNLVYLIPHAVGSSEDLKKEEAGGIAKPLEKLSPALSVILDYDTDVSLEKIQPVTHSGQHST
# ASSAY_INFO: Inhibition of [3H]SCH-23390 binding to Dopamine receptor D1 from rat striatum

Worked cases, Ki given:
COc1ccccc1N1CCN(CCn2c(=O)[nH]c3cc(-c4ccc(Cl)cc4)[nH]c3c2=O)CC1 :: > 10 µM
O=c1[nH]c2cc(-c3ccccc3Cl)[nH]c2c(=O)n1CCN1CCN(c2ccccc2Cl)CC1 :: > 10 µM

API: the following record is the query input.
Ki measured on O=c1[nH]c2cc[nH]c2c(=O)n1CCN1CCN(c2ccccc2Cl)CC1 = > 10 µM

====

Give pKi for every item shown.
# SYSTEM_TESTED: 5-hydroxytryptamine receptor 1A (Rattus norvegicus, UniProt P19327)
# Sequence (P19327 whole entry): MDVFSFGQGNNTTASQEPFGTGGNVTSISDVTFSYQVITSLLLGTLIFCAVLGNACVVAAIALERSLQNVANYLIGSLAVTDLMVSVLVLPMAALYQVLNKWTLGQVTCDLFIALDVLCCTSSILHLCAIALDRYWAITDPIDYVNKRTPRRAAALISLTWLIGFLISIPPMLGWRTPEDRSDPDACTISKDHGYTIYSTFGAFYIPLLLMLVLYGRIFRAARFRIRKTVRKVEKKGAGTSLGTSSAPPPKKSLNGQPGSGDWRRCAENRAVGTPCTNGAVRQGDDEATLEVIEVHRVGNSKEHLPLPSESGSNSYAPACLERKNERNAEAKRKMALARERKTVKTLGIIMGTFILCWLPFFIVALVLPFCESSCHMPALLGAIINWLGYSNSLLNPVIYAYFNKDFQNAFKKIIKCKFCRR
# ASSAY_INFO: Inhibition of [3H]8-OH-DPAT binding to 5-hydroxytryptamine 1A receptor from rat hippocampus
# Type: tissue-based
pKi: −log10 of the molar value.

Past entries and their recorded results:
O=c1[nH]c2cc(-c3ccccc3)[nH]c2c(=O)n1CCCN1CCN(c2ccccc2Cl)CC1 :: 6.89
O=c1[nH]c2cc(-c3ccc(Cl)cc3)[nH]c2c(=O)n1CCN1CCN(c2ccccc2Cl)CC1 :: < 5.00
COc1ccccc1N1CCN(CCn2c(=O)[nH]c3cc(-c4ccc(C)cc4)[nH]c3c2=O)CC1 :: < 5.00
O=c1[nH]c2cc[nH]c2c(=O)n1CCCN1CCN(c2ccccc2Cl)CC1 :: 6.42
COc1ccc(N2CCN(CCn3c(=O)[nH]c4cc(-c5ccccc5)[nH]c4c3=O)CC2)cc1 :: < 5.00

Parameters: items (list). Returns: pKi for each item.
1. O=c1[nH]c2c([nH]c3ccccc32)c(=O)n1CCN1CCN(c2ccccc2Cl)CC1
2. Cc1ccc(-c2cc3[nH]c(=O)n(CCCN4CCN(c5ccccc5Cl)CC4)c(=O)c3[nH]2)cc1
3. COc1ccccc1N1CCN(CCn2c(=O)[nH]c3cc(-c4ccc(Cl)cc4)[nH]c3c2=O)CC1
4. COc1ccc(-c2cc3[nH]c(=O)n(CCN4CCN(c5ccccc5Cl)CC4)c(=O)c3[nH]2)cc1

A:
["< 5.00", "< 5.00", "< 5.00", "< 5.00"]

====

# Species: Rattus norvegicus
# ASSAY_INFO: Relative binding affinity for Dopamine D1 and Alpha-1 adrenergic receptors
Record form. Attribute: Ratio. Fill in for each entry.

Please review the following examples before continuing.
O=c1[nH]c2cc(-c3ccc(Cl)cc3)[nH]c2c(=O)n1CCN1CCN(c2ccccc2Cl)CC1 :: > 800
COc1ccccc1N1CCN(CCn2c(=O)[nH]c3cc(-c4ccc(C)cc4)[nH]c3c2=O)CC1 :: > 4500
O=c1[nH]c2cc[nH]c2c(=O)n1CCN1CCN(c2ccccc2Cl)CC1 :: > 10000

Give Ratio for all compounds that follow.
1. Cc1ccc(-c2cc3[nH]c(=O)n(CCN4CCN(c5ccccc5Cl)CC4)c(=O)c3[nH]2)cc1
2. O=c1[nH]c2cc(-c3ccccc3Cl)[nH]c2c(=O)n1CCN1CCN(c2ccccc2Cl)CC1
3. COc1ccc(-c2cc3[nH]c(=O)n(CCN4CCN(c5ccccc5Cl)CC4)c(=O)c3[nH]2)cc1
4. COc1ccccc1N1CCN(CCn2c(=O)[nH]c3cc(-c4ccc(Cl)cc4)[nH]c3c2=O)CC1

A:
> 500
> 20000
> 2500
> 1000

====

# SYSTEM_TESTED: 5-hydroxytryptamine receptor 1A (Rattus norvegicus, UniProt P19327)
# ASSAY_INFO: Inhibition of [3H]8-OH-DPAT binding to 5-hydroxytryptamine 1A receptor from rat hippocampus
# Assay type: tissue-based
Kindly state Ki for each of the entries shown.
Numbers only, in nM.

COc1ccccc1N1CCN(CCn2c(=O)[nH]c3cc[nH]c3c2=O)CC1 :: 651

Read the next record carefully.
Reported Ki for COc1ccccc1N1CCN(CCn2c(=O)[nH]c3cc(-c4ccccc4)[nH]c3c2=O)CC1 was 24

====

# SYSTEM_TESTED: Serotonin 1a (5-HT1a) receptor/Adrenergic receptor alpha-1 (Rattus norvegicus) (UniProt P15823+P23944+P43140+P19327)
# ASSAY_INFO: Relative binding affinity for 5-hydroxytryptamine 1A and Alpha-1 adrenergic receptors
# Assay type: protein assay
EXPERIMENTAL_READOUT: Ratio
Give bare numbers.

Record excerpt, results attached:
O=c1[nH]c2cc(-c3ccccc3)[nH]c2c(=O)n1CCN1CCN(c2ccccc2Cl)CC1 :: 32
O=c1[nH]c2cc(-c3ccccc3)[nH]c2c(=O)n1CCCN1CCN(c2ccccc2Cl)CC1 :: 2.1
O=c1[nH]c2cc[nH]c2c(=O)n1CCN1CCN(c2ccccc2Cl)CC1 :: 594

Value sought for every listed molecule: Ratio.
1. COc1ccccc1N1CCN(CCn2c(=O)[nH]c3c([nH]c4ccccc43)c2=O)CC1
2. COc1ccccc1N1CCN(CCn2c(=O)[nH]c3cc(-c4cccc(Cl)c4)[nH]c3c2=O)CC1
3. COc1ccccc1N1CCN(CCCn2c(=O)[nH]c3cc(-c4ccc(C)cc4)[nH]c3c2=O)CC1
4. O=c1[nH]c2cc[nH]c2c(=O)n1CCCN1CCN(c2ccccc2Cl)CC1
5. COc1ccccc1N1CCN(CCCn2c(=O)[nH]c3cc(-c4ccccc4)[nH]c3c2=O)CC1

A:
1: 238; 2: 0.87; 3: 1.73; 4: 6.3; 5: 18

====

# SYSTEM_TESTED: UniProt:P61169
# Sequence (P61169 whole entry): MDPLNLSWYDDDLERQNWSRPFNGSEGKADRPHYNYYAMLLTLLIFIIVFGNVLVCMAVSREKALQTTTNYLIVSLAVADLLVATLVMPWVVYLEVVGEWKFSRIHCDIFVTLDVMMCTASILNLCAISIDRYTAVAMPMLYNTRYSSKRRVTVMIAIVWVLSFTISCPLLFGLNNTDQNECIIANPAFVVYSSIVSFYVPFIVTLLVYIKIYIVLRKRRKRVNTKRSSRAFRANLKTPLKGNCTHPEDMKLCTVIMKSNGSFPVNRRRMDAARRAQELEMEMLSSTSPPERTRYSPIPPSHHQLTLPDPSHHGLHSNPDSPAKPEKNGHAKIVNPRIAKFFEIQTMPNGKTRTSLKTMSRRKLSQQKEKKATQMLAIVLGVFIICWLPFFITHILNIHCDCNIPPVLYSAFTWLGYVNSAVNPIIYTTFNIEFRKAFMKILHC
# ASSAY_INFO: Inhibition of [3H]spiperone binding to Dopamine receptor D2 from rat striatum
pKi: −log10 of the molar value.
Rule: pKi under 8 gives n, otherwise y.

COc1ccccc1N1CCN(CCn2c(=O)[nH]c3cc(-c4ccc(Cl)cc4)[nH]c3c2=O)CC1 :: y
O=c1[nH]c2cc(-c3ccc(Cl)cc3)[nH]c2c(=O)n1CCN1CCN(c2ccccc2Cl)CC1 :: n
COc1ccccc1N1CCN(CCn2c(=O)[nH]c3cc(-c4ccc(C)cc4)[nH]c3c2=O)CC1 :: n
COc1ccc(-c2cc3[nH]c(=O)n(CCN4CCN(c5ccccc5Cl)CC4)c(=O)c3[nH]2)cc1 :: y
O=c1[nH]c2cc(-c3ccccc3Cl)[nH]c2c(=O)n1CCN1CCN(c2ccccc2Cl)CC1 :: n
O=c1[nH]c2cc[nH]c2c(=O)n1CCN1CCN(c2ccccc2Cl)CC1 :: n

Then there is this compound:
Q: Check the entry Cc1ccc(-c2cc3[nH]c(=O)n(CCN4CCN(c5ccccc5Cl)CC4)c(=O)c3[nH]2)cc1 : does pKi equal or exceed 8?
A: n

Hello, the source for this data is ChEMBL document CHEMBL1144410, in case you need it.
